Experiment: qHTS of Nrf2 Activators: Hit Validation in Primary Assay; also: nearly all actives have a fitted effect of over 70% in size
Conditions: Nrf2/ARE reporter cell assay; activation; series mostly up to 46.1 µM
Among all 1,100 compounds or so, about 860 (78%) were called active. Inconclusive results (about 19%) are left out. Calls follow the shape of the dose curve; as a rule, active = well fitted activation curve with a large enough effect; inconclusive = small, poorly fitted or top-dose-only effect; inactive = flat fitted curve, though single readings scatter. The set was probably picked from earlier hits. This is one part of the list.
Select the correct class. Options are active, inactive and nothing else.

Recorded results for 6 compounds are shown here.
> print(dat)
                                   compound     class
1  c1ccc(-c2ccc3c(c2)NC(C2Nc4cc(-c5ccccc5)ccc4O2)O3)cc1 (configuration not stated)  inactive
2            Nc1nccc(-c2ccc(-n3cccc3)cc2)n1    active
3  CCNc1ccc(-c2nc(-c3ccco3)no2)cc1[N+](=O)[O-]    active
4        Oc1ccc(Br)cc1-c1cc(-c2ccco2)[nH]n1    active
5  CCOc1ncccc1C(=O)NNC(=O)c1ccc(NS(=O)(=O)c2cccs2)cc1    active
6                  C/C(=N\Nc1ccccn1)c1cccs1    active

What did this assay record as the result for CCCNc1ccc(-c2nc(-c3ccco3)no2)cc1[N+](=O)[O-] ?
active

What did this assay record as the result for Cc1ccc(-c2nc(NCc3ccco3)c3ccccc3n2)cc1 ?
active

What did this assay record as the result for C/C(=N\Nc1ccccn1)c1ccc(Br)s1 ?
active

What did this assay record as the result for c1cncc(-c2nc(NCc3ccco3)c3ccccc3n2)c1 ?
active

What did this assay record as the result for O=c1cc(-c2ccccc2Cl)oc2c(Br)ccc(O)c12 ?
active

What did this assay record as the result for Oc1ccc(Cl)cc1-c1cc(-c2ccco2)[nH]n1 ?
active

----------
Assay: qHTS of Nrf2 Activators: Hit Validation in Primary Assay; also: nearly all actives have a fitted effect of over 70% in size
Details: Nrf2/ARE reporter cell assay; activation; series mostly up to 46.1 µM
Method: Many diseases have some form of oxidative stress injury and ties to inflammation, causing a host of problems for the patient. The antioxidant response element (ARE) plays an important role in alleviating the harmful effects of oxidative stress. […] Quantification of ARE activation after compound treatment was measured by the Steady-Glo Luciferase (R) assay system (Promega) in AREc32_fluc stable cells. […] The plates were measured on a ViewLux plate reader (PerkinElmer) with clear filter.
The whole screen tested about 1,100 compounds, of which about 860 (78%) were called active. Inconclusive results (about 19%) are left out. Calls follow the shape of the dose curve; as a rule, active = well fitted activation curve with a large enough effect; inconclusive = small, poorly fitted or top-dose-only effect; inactive = flat fitted curve, though single readings scatter. The set was probably picked from earlier hits. Some of the results follow.
Select the correct class. Options are Yes = active, No = inactive and nothing else.

Recorded results for 10 compounds are shown here.
> print(dat)
                                    compound  class
 1  CCn1c(SCC(=O)N/N=C/C=C\c2ccco2)nc2ccccc21    Yes
 2  COC(=O)c1c(NC(=O)/C=C/C(=O)O)sc(C)c1-c1ccc(C(C)C)cc1    Yes
 3        Cc1cc(C)c(C#N)c(SCC(=O)c2ccccc2)n1    Yes
 4    Cc1c(=O)n(OCc2ccccc2)c2ccccc2[n+]1[O-]    Yes
 5             O=C(/C=C/Nc1ccc(F)cc1)c1cccs1    Yes
 6     CCN1C(=O)/C(=C\c2ccco2)C(C(=O)OC)=C1C    Yes
 7        CCOC(=O)c1ccccc1N/C=C/C(=O)c1cccs1    Yes
 8  CCN1CCN(c2sc(S(C)(=O)=O)nc2S(=O)(=O)c2ccc(Cl)cc2)CC1    Yes
 9    COc1ccc(NC(=O)Nc2nnc(-c3ccccc3F)s2)cc1    Yes
10         C(=N/n1c2ccccc2c2ccccc21)/c1ccco1    Yes

What did this assay record as the result for COc1ccccc1-c1nnc(NC(C)=O)s1 ?
Yes

What did this assay record as the result for COc1ccc(OC)c(/C=C2\SC(=S)N(Cc3cccnc3)C2=O)c1 ?
Yes

What did this assay record as the result for N#C/C(=C(/O)c1ccco1)c1nc2ccccc2[nH]1 ?
Yes

What did this assay record as the result for O=c1[nH]ncc(N/N=C\c2cccs2)c1Cl ?
Yes

What did this assay record as the result for CS(=O)(=O)c1nc(S(=O)(=O)c2ccc(Cl)cc2)c(N2CCN(CCO)CC2)s1 ?
Yes

What did this assay record as the result for O=C(Nc1ccccc1)c1nc[nH]c1C(=O)Nc1ccccc1F ?
No

What did this assay record as the result for Cc1ccc(NC(=O)CC2S/C(=N/N=C/c3ccco3)NC2=O)cc1Cl (stereo not given) ?
Yes

What did this assay record as the result for Cn1c(=O)c2nc(-c3ccccc3)oc2c2ccccc21 ?
Yes

What did this assay record as the result for Cc1ccc(Cl)c2sc(NC(=O)C3CC3)nc12 ?
Yes

What did this assay record as the result for O=C(Nc1nnc(-c2ccccc2F)s1)C1CCCO1 (stereo not given) ?
Yes

What did this assay record as the result for CCCc1c(C(=O)N/N=C/c2cccs2)nnn1-c1nonc1N ?
Yes

What did this assay record as the result for O=C1/C(=C/c2ccccc2O)SC(=S)N1Cc1cccnc1 ?
Yes

What did this assay record as the result for O=C(CC1S/C(=N/N=C/c2ccco2)NC1=O)Nc1ccccc1 (stereo not given) ?
Yes

What did this assay record as the result for O=C1CSC(=S)N1Cc1cccnc1 ?
Yes

What did this assay record as the result for COC(=O)C1=C(C)N(C)C(=O)/C1=C\c1ccco1 ?
Yes
